- SYSTEM UNDER TEST: Gal(b1-4)GlcNAc(b1-3)Gal(b1-3)GalNAc
- MEASUREMENT DESCRIPTION: glycan array binding signal (z-score within array); higher = stronger binding
- MEASUREMENT CONDITIONS: glycan notation: IUPAC condensed, linker removed
The full list was thinned out, with the strongest signals kept by preference.
QUANTITY NAME: glycan array binding signal (z-score)
I'd appreciate a reply containing only the number, no unit.

get_value(item= LSL-150 (Laetiporus sulphureus), Q7Z8V1 (protein) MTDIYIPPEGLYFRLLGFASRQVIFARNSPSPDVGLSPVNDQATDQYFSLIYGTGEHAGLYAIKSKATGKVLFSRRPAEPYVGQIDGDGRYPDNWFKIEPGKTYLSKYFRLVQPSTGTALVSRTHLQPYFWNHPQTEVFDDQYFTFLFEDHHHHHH , readout=glycan array binding signal (z-score)) returns -0.205

Origin of measurements: the supplement of paper PMC8728848
